B1: Pre-mRNA-processing factor 40 homolog B, residues 274 to 332; numbered along this chain, Q6NWY9 (parent)
chain: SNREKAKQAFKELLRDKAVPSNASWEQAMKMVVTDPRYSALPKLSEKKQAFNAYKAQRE

Variants of: B1
Experiment: abundance fitness (aPCA) (normalised: wild type 0, dead -1); higher = more abundant; growth selection in yeast, the domain comes from the species named
Details: Homo sapiens
readout-type: abundance fitness

{"mutation-list": "E12P", "readout-type": "abundance fitness", "test-result": -0.988}
{"mutation-list": "N22I", "readout-type": "abundance fitness", "test-result": -1.04}
{"mutation-list": "K30M", "readout-type": "abundance fitness", "test-result": -0.247}
{"mutation-list": "N2V", "readout-type": "abundance fitness", "test-result": -0.849}
{"mutation-list": "L44N", "readout-type": "abundance fitness", "test-result": -0.448}
{"mutation-list": "N22F", "readout-type": "abundance fitness", "test-result": -0.906}
{"mutation-list": "R3W", "readout-type": "abundance fitness", "test-result": -0.251}
{"mutation-list": "Q27K", "readout-type": "abundance fitness", "test-result": -0.292}
{"mutation-list": "S1W", "readout-type": "abundance fitness", "test-result": -0.417}
{"mutation-list": "A6S", "readout-type": "abundance fitness", "test-result": -0.194}
{"mutation-list": "V32Q", "readout-type": "abundance fitness", "test-result": -0.428}
{"mutation-list": "E26T", "readout-type": "abundance fitness", "test-result": -0.006}
{"mutation-list": "A18Q", "readout-type": "abundance fitness", "test-result": 0.101}
{"mutation-list": "K43S", "readout-type": "abundance fitness", "test-result": 0.122}
{"mutation-list": "L41N", "readout-type": "abundance fitness", "test-result": -0.443}
{"mutation-list": "V19G", "readout-type": "abundance fitness", "test-result": -0.479}
{"mutation-list": "K30H", "readout-type": "abundance fitness", "test-result": -0.384}
{"mutation-list": "P20R", "readout-type": "abundance fitness", "test-result": -0.592}
{"mutation-list": "K43P", "readout-type": "abundance fitness", "test-result": -0.359}
{"mutation-list": "W25Q", "readout-type": "abundance fitness", "test-result": -0.36}
{"mutation-list": "A53L", "readout-type": "abundance fitness", "test-result": -0.314}
{"mutation-list": "R15N", "readout-type": "abundance fitness", "test-result": 0.015}
{"mutation-list": "K48N", "readout-type": "abundance fitness", "test-result": -0.545}
{"mutation-list": "V32N", "readout-type": "abundance fitness", "test-result": -0.294}
{"mutation-list": "K17D", "readout-type": "abundance fitness", "test-result": -0.72}
{"mutation-list": "Y38I", "readout-type": "abundance fitness", "test-result": -0.548}
{"mutation-list": "R3S", "readout-type": "abundance fitness", "test-result": 0.076}
{"mutation-list": "F10S", "readout-type": "abundance fitness", "test-result": -0.254}
{"mutation-list": "R15V", "readout-type": "abundance fitness", "test-result": -0.001}
{"mutation-list": "R15Q", "readout-type": "abundance fitness", "test-result": -0.062}
{"mutation-list": "S45E", "readout-type": "abundance fitness", "test-result": -0.027}
{"mutation-list": "L14V", "readout-type": "abundance fitness", "test-result": -0.385}
{"mutation-list": "S39Q", "readout-type": "abundance fitness", "test-result": -0.191}
{"mutation-list": "P36W", "readout-type": "abundance fitness", "test-result": -0.669}
{"mutation-list": "S39R", "readout-type": "abundance fitness", "test-result": 0.032}
{"mutation-list": "V33K", "readout-type": "abundance fitness", "test-result": 0.169}
{"mutation-list": "S24C", "readout-type": "abundance fitness", "test-result": -0.371}
{"mutation-list": "V32I", "readout-type": "abundance fitness", "test-result": 0.178}
{"mutation-list": "A18K", "readout-type": "abundance fitness", "test-result": -0.043}
{"mutation-list": "A53P", "readout-type": "abundance fitness", "test-result": -0.494}
{"mutation-list": "A40R", "readout-type": "abundance fitness", "test-result": -0.304}
{"mutation-list": "Q27S", "readout-type": "abundance fitness", "test-result": -0.406}
{"mutation-list": "R3N", "readout-type": "abundance fitness", "test-result": 0.221}
{"mutation-list": "Q27G", "readout-type": "abundance fitness", "test-result": -0.358}
{"mutation-list": "K5D", "readout-type": "abundance fitness", "test-result": -0.012}
{"mutation-list": "A18F", "readout-type": "abundance fitness", "test-result": -0.539}
